koff overview
Target Entity: DN-IV quality control recombinant protein (produced by the company) (dengue virus)
Assay Notes: BLI, antibody on AMC sensor
// units = s⁻¹; emit number, no label

The following binders have reported results that may help.
{"Binder": "WT (recombinant anti-dengue virus NS1 7F8 antibody of Example 2) (antibody, mouse IgG1, kappa, V domains shown) VH: EVQLQQPGPELVKPGASVKMSCKASGYTVTSYVIHWVRQKPGQGLEWIGYMNAYNDGIKYNEKFIGKAILTSDKSSSTAYMQLSSLTSEDSAVYYCTKEGLFYVMDYWGQGTSVTVSS VL: QIVLTQSPAIMSASPGEKVTMTCSATSSISYMHWYQQKSGTSPKRWIYDTSKLASPVPVRFSGSGSGTSYSLTISSMEAEDAATYFCQYWRSDLPTFGAGTKLELKR", "koff [s⁻¹]": 0.000139}
{"Binder": "Mutation 1-30 (antibody, V domains shown) VH: EVQLQQPGPELVKPGASVKMSCKASGYTFTSTVIHWVRQKPGQGLEWIGYMNPYNDGLKYNEKFIGKAILTSDKSSSTAYMQLSSLTSEDSAVYYCTREGLFYVMDYWGQGTSVTVSS VL: QIVLTQSPAIMSASPGEKVTMTCSATSSLSYMHWYQQKSGTSPKRWIYDTSKLASGVPVRFSGSGSGTSYSLTISSMEAEDAATYFCQYWRSDLPTFGAGTKLELKR", "koff [s⁻¹]": 0.000132}
{"Binder": "Mutation 1-42 (antibody, V domains shown) VH: EVQLQQPGPELVKPGASVKMSCKASGYTFTSTVIHWVRQKPGQGLEWIGYMNPYNDGIKYNEKFIGKAILTSDKSSSTAYMQLSSLTSEDSAVYYCTREGLFYVFDYWGQGTSVTVSS VL: QIVLTQSPAIMSASPGEKVTMTCSATSSLSYMHWYQQKSGTSPKRWIYDTSKLASGVPVRFSGSGSGTSYSLTISSMEAEDAATYFCQQWRSDLPTFGAGTKLELKR", "koff [s⁻¹]": 0.000209}
{"Binder": "Mutation 1-51 (antibody, V domains shown) VH: EVQLQQPGPELVKPGASVKMSCKASGYTFTSTVIHWVRQKPGQGLEWIGYMNPYNDGLKYNEKFIGKAILTSDKSSSTAYMQLSSLTSEDSAVYYCTREGLFYVMDYWGQGTSVTVSS VL: QIVLTQSPAIMSASPGEKVTMTCSATSSISYMHWYQQKSGTSPKRWIYDSSKLASGVPVRFSGSGSGTSYSLTISSMEAEDAATYFCQWWRSDLPTFGAGTKLELKR", "koff [s⁻¹]": 0.000201}

Which koff is listed for Mutation 1-12 (antibody, V domains shown) VH: EVQLQQPGPELVKPGASVKMSCKASGYTFTSTVIHWVRQKPGQGLEWIGYMNPYNDGIKYNEKFIGKAILTSDKSSSTAYMQLSSLTSEDSAVYYCTREGLFYVMDYWGQGTSVTVSS VL: QIVLTQSPAIMSASPGEKVTMTCSATSSISYMHWYQQKSGTSPKRWIYDTSKLASGVPVRFSGSGSGTSYSLTISSMEAEDAATYFCQYWRSDLPTFGAGTKLELKR ?
0.000122
